Molecular target: 5-hydroxytryptamine receptor 1A (Homo sapiens)
Sequence (P08908 whole entry): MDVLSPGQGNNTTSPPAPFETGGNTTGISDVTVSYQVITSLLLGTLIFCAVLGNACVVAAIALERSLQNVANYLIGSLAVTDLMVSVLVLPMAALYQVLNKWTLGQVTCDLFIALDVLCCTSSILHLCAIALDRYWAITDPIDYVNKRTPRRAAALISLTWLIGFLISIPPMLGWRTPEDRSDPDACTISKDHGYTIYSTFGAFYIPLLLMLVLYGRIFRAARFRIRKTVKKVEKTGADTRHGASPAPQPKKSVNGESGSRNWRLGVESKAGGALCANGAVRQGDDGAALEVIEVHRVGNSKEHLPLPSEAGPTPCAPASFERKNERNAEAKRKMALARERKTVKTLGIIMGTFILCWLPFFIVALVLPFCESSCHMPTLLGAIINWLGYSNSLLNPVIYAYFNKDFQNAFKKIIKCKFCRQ
Test: Binding affinity against 5-hydroxytryptamine 1A receptor
Assignment: determine reported Ki for the given compounds.
The reply should be a number in nM, with the unit left off.

I have this compound here, CCCN1CCC[C@@H]2c3cc(O)ccc3CC[C@H]21 , and I need its recorded Ki.
3.87

And O=C1c2ccccc2C(=O)N1CCCCN1CCn2c(cc3ccccc32)C1 ?
74

And CCCCCCN1CCc2c([nH]c3ccccc23)C1 ?
79

And COc1cccc2c1C1CCN(CCCN3C(=O)c4ccccc4S3(=O)=O)C[C@H]1C2 (some centres undefined) ?
0.89

* * *

Assignment: determine reported pKi for the given compounds.
Target: 5-hydroxytryptamine receptor 1A (Homo sapiens)
Sequence (P08908 whole entry): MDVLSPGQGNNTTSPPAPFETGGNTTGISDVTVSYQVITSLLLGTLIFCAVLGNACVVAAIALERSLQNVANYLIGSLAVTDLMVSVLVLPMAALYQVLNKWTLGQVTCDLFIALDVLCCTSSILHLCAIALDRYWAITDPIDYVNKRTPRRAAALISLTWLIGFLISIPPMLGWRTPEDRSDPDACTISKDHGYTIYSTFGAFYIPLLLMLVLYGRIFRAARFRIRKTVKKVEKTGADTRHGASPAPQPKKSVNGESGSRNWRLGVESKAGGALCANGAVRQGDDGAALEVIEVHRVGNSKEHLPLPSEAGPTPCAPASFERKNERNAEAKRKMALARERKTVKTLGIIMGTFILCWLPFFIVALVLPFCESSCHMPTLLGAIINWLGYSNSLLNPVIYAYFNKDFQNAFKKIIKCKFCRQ
Experiment: Compound was measured […] for its binding affinity at 5-hydroxytryptamine 1A receptor using [3H]8-OH-DPAT as radioligand
pKi (log units): -log10 of the concentration in mol/L.

I have this compound here, O=C(c1cccc(CN2CCN3c4ccccc4OCC3C2)c1)N1CCCCC1 (stereo not given) , and I need its recorded pKi.
7.92

And O=C(c1cccc(CN2CCc3c([nH]c4ccccc34)C2)c1)N1CCCCC1 ?
7.89

And O=C(c1cccc(CN2CCc3c([nH]c4ccccc34)C2)c1)N1CCc2ccccc21 ?
8.04

And CC(C)Oc1ccccc1N1CCN(Cc2cccc(C(=O)N3CCc4ccccc43)c2)CC1 ?
8.47

And O=C(c1cccc(CN2CCN3c4ccccc4OCC3C2)c1)N1CCc2ccccc21 (stereo not given) ?
8.19

* * *

molecular target: UniProtKB P35365
Sequence (P35365 whole entry): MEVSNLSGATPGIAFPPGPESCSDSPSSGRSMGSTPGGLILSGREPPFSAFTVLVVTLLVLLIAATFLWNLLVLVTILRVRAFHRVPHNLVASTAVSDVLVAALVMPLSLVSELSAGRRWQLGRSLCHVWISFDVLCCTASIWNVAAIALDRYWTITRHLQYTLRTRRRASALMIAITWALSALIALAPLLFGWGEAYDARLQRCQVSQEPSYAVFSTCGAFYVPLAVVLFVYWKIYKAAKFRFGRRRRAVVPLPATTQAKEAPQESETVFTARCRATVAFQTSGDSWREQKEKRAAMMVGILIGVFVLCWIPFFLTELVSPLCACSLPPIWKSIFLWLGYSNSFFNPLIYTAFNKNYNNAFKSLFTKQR
Endpoint Name: Ki (nM)
The reply should be a number in nM, with the unit left off.

I have this compound here, FC(F)(F)c1ccc2c(c1)N1CCNCC1CC2 (stereo unspecified) , and I need its recorded Ki.
67
